Test system: UGT (glucuronidation)
Method: Liver microsomal glucuronidation assay (human)
Format: in vitro ADME
Test Settings: liver microsomes, pH 7.5, with 2% BSA, Clint divided by microsomal unbound fraction, read-out: Clint,u, Liver microsomes
Give microsomal CLint at 2 µmol/L for every item shown.

Cc1ccc([C@@H]2O[C@H](CO)[C@@H](O)[C@H](O)[C@H]2O)cc1Cc1ccc(-c2ccc(F)cc2)s1 [Canagliflozin]: 422 µL/min/mg

Shift focus to the following entry.
Notebook entry, UGT (glucuronidation) assay: microsomal CLint at 2 µmol/L of C[C@H]1c2cccc(CC(C)(C)O)c2C[C@H](CO)N1C(=O)Cc1c(Cl)cccc1Cl [DPTQ] = ?
47.1 µL/min/mg

====

Tested on: UGT
Method: Liver microsomal glucuronidation assay (human)
Assay type: in vitro ADME
Test Settings: human liver microsomes, pH 7.5, with 2% BSA
Kindly state microsomal CLint at 2 µmol/L for each of the entries shown.
Respond with the figure and its unit, in that order.

Cc1ccc([C@@H]2O[C@H](CO)[C@@H](O)[C@H](O)[C@H]2O)cc1Cc1ccc(-c2ccc(F)cc2)s1 [Canagliflozin]: 7.6 µL/min/mg

Proceed to the following item.
Entry C[C@H]1c2cccc(CC(C)(C)O)c2C[C@H](CO)N1C(=O)Cc1c(Cl)cccc1Cl [DPTQ] has what microsomal CLint at 2 µmol/L?
5.6 µL/min/mg

====

Tested on: UGT
Method: Liver microsomal glucuronidation assay (dog)
Assay type: in vitro ADME
Test Settings: dog liver microsomes, pH 7.5, dog, with 2% BSA, ND = Clint < 1.8, read-out: Clint, Liver microsomes
Measurement Type: microsomal CLint at 2 µmol/L (µL/min/mg)
One number for each entry, in µL/min/mg.

Request the reported microsomal CLint at 2 µmol/L associated with `C[C@H]1c2cccc(CC(C)(C)O)c2C[C@H](CO)N1C(=O)Cc1c(Cl)cccc1Cl`
79.4
